Answer each item with its documented CC50 at 72 h.
# PROCEDURE TEXT: Cytotoxicity against human HepG2 cells assessed as reduction in cell viability after 72 hrs by MTT assay
# Assay type: cell-based

Request: Need CC50 at 72 h, item CC(O)C#Cc1cc(Cl)cn2c([N+](=O)[O-])c(CS(=O)(=O)c3ccccc3)nc12 (stereo not drawn)
Result: 44.2 µM

Request: // same read-out, input: CC(O)(C#Cc1cc(Cl)cn2c([N+](=O)[O-])c(CS(=O)(=O)c3ccccc3)nc12)c1ccccc1 (stereo not drawn)
Result: 18.8 µM

Request: Also O=[N+]([O-])c1c(CS(=O)(=O)c2ccccc2)nc2c(C#Cc3ccc(F)cc3)cc(Cl)cn12 , if possible.
Result: > 3.9 µM

Request: Same read-out for O=[N+]([O-])c1c(CS(=O)(=O)c2ccccc2)nc2c(C#CCO)cc(Cl)cn12 ?
Result: 10.1 µM

Request: What do you have for Cc1ccc(C(=O)Nc2ccc(S(=O)(=O)O)c3cc(S(=O)(=O)O)cc(S(=O)(=O)O)c23)cc1NC(=O)c1cccc(NC(=O)Nc2cccc(C(=O)Nc3cc(C(=O)Nc4ccc(S(=O)(=O)O)c5cc(S(=O)(=O)O)cc(S(=O)(=O)O)c45)ccc3C)c2)c1 ?
Result: > 100 µM

Request: Check O=[N+]([O-])c1c(CS(=O)(=O)c2ccccc2)nc2c(-c3ccncc3)cc(Cl)cn12 too.
Result: > 50 µM

Request: And O=[N+]([O-])c1c(CS(=O)(=O)c2ccccc2)nc2c(C#Cc3cccc(F)c3)cc(Cl)cn12 ?
Result: > 3.9 µM

Request: // query: O=[N+]([O-])c1c(CS(=O)(=O)c2ccccc2)nc2c(C#Cc3cccs3)cc(Cl)cn12
Result: > 3.9 µM

* * *

# PROCEDURE TEXT: AUC (0 to infinity) in Swiss albino mouse at 100 mg/kg, po
# Type: ADME, organism-based
# Parameters: time infinity, route oral, dose 100 mg/kg
# CONDITION: in vivo
PARAMETER: AUC(0-inf) (ng·h/mL)
Give a bare numeral; the unit ng·h/mL is implied.

Request: Name the recorded AUC(0-inf) for O=[N+]([O-])c1c(CS(=O)(=O)c2ccccc2)nc2c(C#CCCO)cc(Cl)cn12 .
Result: 1430

* * *

# PROCEDURE TEXT: Thermodynamic solubility of the compound in phosphate buffer at pH 7.4 by shake flask method
# Format: physicochemical
# CONDITION: read-out: Therm_solubility
PARAMETER: solubility thermodynamic

Request: Entry O=[N+]([O-])c1c(CS(=O)(=O)c2ccccc2)nc2c(C#CCCO)cc(Cl)cn12 : reported solubility thermodynamic = ?
Result: 70.7 µM

* * *

# PROCEDURE TEXT: Half life in Swiss albino mouse plasma at 100 mg/kg, po
# Format: ADME, organism-based
PARAMETER: half-life
Could you kindly put the unit after your number?

Request: Any idea what its half-life is? The molecule is O=[N+]([O-])c1c(CS(=O)(=O)c2ccccc2)nc2c(C#CCCO)cc(Cl)cn12
Result: 10 h

* * *

Can you tell me selectivity ratio for the items I'm about to list?
# PROCEDURE TEXT: Selectivity index, ratio of CC50 for human HepG2 cells to EC50 for Trypanosoma brucei brucei AnTat 1.9
# Type: toxicity
# CONDITION: read-out: Selectivity Index

Request: Record request: selectivity ratio value, item CC(C)(O)C#Cc1cc(Cl)cn2c([N+](=O)[O-])c(CS(=O)(=O)c3ccccc3)nc12
Result: > 521

Request: What do we get for NCCCC(N)(C(=O)O)C(F)F (stereo unspecified) ?
Result: > 7.5

Request: Next compound: O=[N+]([O-])c1c(CS(=O)(=O)c2ccccc2)nc2c(C#CCO)cc(Cl)cn12
Result: 84.2

Request: Another compound: O=[N+]([O-])c1c(CS(=O)(=O)c2ccccc2)nc2c(C#CC3(O)CCCCC3)cc(Cl)cn12
Result: > 250

Request: Similarly, O=[N+]([O-])c1c(CS(=O)(=O)c2ccccc2)nc2c(C#CCCO)cc(Cl)cn12 ?
Result: > 1790

Request: Repeat with O=[N+]([O-])c1c(CS(=O)(=O)c2ccccc2)nc2c(C#Cc3ccc(CO)cc3)cc(Cl)cn12
Result: > 97.5

Request: How about this compound: CCC(O)CC#Cc1cc(Cl)cn2c([N+](=O)[O-])c(CS(=O)(=O)c3ccccc3)nc12 (stereo unspecified)
Result: > 1560

Request: Repeat for the following compound: CC(O)C#Cc1cc(Cl)cn2c([N+](=O)[O-])c(CS(=O)(=O)c3ccccc3)nc12 (stereo unspecified)
Result: 1100

Request: Would you kindly repeat that for CC(O)(C#Cc1cc(Cl)cn2c([N+](=O)[O-])c(CS(=O)(=O)c3ccccc3)nc12)c1ccccc1 (stereo unspecified) ?
Result: > 145

Request: Likewise for CC1CS(=O)(=O)CCN1/N=C/c1ccc([N+](=O)[O-])o1 (stereo unspecified) ?
Result: 17.4

Request: Try this compound next: Nc1c(CS(=O)(=O)c2ccccc2)nc2c(C#CCCO)cc(Cl)cn12
Result: > 9.2
